assayed.target: Hormone-sensitive lipase (Rattus norvegicus, UniProt P15304)
Sequence (P15304 whole entry): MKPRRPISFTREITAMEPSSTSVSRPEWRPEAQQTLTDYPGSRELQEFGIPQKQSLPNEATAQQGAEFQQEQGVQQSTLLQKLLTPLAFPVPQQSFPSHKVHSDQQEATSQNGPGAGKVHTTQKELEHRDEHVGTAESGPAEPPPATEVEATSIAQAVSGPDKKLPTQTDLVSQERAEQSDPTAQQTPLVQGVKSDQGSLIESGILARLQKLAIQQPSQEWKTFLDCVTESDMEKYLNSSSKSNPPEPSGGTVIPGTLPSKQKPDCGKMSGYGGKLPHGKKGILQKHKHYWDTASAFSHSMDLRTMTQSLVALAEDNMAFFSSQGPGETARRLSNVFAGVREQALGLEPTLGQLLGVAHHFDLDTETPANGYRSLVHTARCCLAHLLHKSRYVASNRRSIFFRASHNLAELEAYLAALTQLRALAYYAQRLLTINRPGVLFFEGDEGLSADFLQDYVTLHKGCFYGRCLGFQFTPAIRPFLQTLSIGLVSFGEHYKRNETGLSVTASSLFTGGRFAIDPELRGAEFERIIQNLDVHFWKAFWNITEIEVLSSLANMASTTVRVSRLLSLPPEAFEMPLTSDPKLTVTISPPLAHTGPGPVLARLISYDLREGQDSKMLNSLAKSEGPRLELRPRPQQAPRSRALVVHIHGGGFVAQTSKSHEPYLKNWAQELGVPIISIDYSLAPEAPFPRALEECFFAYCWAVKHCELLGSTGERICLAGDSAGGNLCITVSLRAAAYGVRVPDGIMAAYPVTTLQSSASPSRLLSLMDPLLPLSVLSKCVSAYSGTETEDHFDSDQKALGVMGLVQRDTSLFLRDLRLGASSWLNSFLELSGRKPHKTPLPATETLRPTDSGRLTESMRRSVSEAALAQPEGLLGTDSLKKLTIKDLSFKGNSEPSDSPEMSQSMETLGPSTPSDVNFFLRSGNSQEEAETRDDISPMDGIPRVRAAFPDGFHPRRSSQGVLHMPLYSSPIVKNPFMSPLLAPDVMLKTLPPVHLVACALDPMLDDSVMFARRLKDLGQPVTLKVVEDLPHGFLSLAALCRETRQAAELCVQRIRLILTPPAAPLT
protocol.description: Inhibition of HSL in rat adipocytes assessed as reduction in lipolysis by measuring glycerol concentration incubated for 30 mins by spectrophotometric analysis
pIC50: −log10 of the molar value.
Attribute: pIC50
test.readout: pIC50

1) COc1ccc(CC(=O)N2CCC(Oc3ccc(C(F)(F)F)cn3)CC2)c(B(O)O)c1
7.35
2) O=C(Cc1ccccc1B(O)O)N1CCC(Oc2ccc(C(F)(F)F)cn2)CC1
7.10
3) O=C(CCc1ccccc1B(O)O)N1CCC(Oc2ccc(C(F)(F)F)cn2)CC1
5.85
4) O=C(Cc1ccccc1B(O)O)N1CCC(Oc2ccc(C(F)(F)F)nc2)CC1
6.74
5) O=C(Cc1ccccc1B(O)O)N1CCC(COc2ccc(C(F)(F)F)cn2)CC1
6.59
6) O=C(Nc1ccccc1B(O)O)c1ccc(Oc2ccc(C(F)(F)F)cn2)cn1
5.96
7) OB(O)c1ccccc1CN1CCC(Oc2ccc(C(F)(F)F)cn2)CC1
5.85
8) O=C(Nc1ccc(Cl)cc1B(O)O)c1ccc(Oc2ccc(C(F)(F)F)cc2)nc1
6.96
9) O=C(C(O)c1ccccc1B(O)O)N1CCC(Oc2ccc(C(F)(F)F)cn2)CC1 (configuration not stated)
6.55
10) O=C(Nc1ccccc1B(O)O)c1ccc(Oc2ccc(C(F)(F)F)cn2)cc1
6.33
11) O=C(Cc1ccccc1B(O)O)N1CCC(Oc2ccc(C(F)(F)F)cc2)CC1
6.89
12) O=C(Cc1ccc(Cl)cc1B(O)O)N1CCC(Oc2ccc(C(F)(F)F)cn2)CC1
7.62
